Provenance of the data: PubChem BioAssay (NCI)

- assay-details: NCI Yeast Anticancer Drug Screen. Data for the sgs1 mgt1 strain (AID 161);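 also: 0% = growth of cultures given vehicle only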
- applied-conditions: S. cerevisiae sgs1 mgt1 strain, at 50.0 µM, active compounds read high
- Procedure: Growth inhibition of yeast strains with defined genetic alterations is measured as a screen for potential anti-cancer activity. Selected strains with alterations in DNA damage repair or cell cycle control were exposed to compounds and growth inhibition was measured relative to vehicle treated controls. The strain used in this assay is sgs1 mgt1
Compounds without any hit were thinned out: in the full panel of roughly 79,000, 15% have a hit. Activity calls are given as the source filed them. Rule as the data show it: active = growth inhibition above about 70%; inactive = the rest.
readout-type: growth inhibition

CCCCCCCCCCCCCCCCCC(=O)OCC1OC(OC2(OC(=O)CCCCCCCCCCCCCCCCC)OC(COC(=O)CCCCCCCCCCCCCCCCC)C(OC(=O)CCCCCCCCCCCCCCCCC)C2OC(=O)CCCCCCCCCCCCCCCCC)C(OC(=O)CCCCCCCCCCCCCCCCC)C(OC(=O)CCCCCCCCCCCCCCCCC)C1OC(=O)CCCCCCCCCCCCCCCCC (centres undefined)	25.4% (inactive)
O=C(c1ccccc1)C(O)(c1ccccc1)C1CCCC/C1=N\N(c1ccccc1)c1ccccc1 (centres undefined)	29.9% (inactive)
Nc1ccc2ccccc2c1S(=O)(=O)O	15% (inactive)
C/C(=N\S(=O)(=O)c1ccc([N+](=O)[O-])cc1)OCC(C)C	14.7% (inactive)
